tested.on: UniProt:P16278
Sequence (P16278 whole entry): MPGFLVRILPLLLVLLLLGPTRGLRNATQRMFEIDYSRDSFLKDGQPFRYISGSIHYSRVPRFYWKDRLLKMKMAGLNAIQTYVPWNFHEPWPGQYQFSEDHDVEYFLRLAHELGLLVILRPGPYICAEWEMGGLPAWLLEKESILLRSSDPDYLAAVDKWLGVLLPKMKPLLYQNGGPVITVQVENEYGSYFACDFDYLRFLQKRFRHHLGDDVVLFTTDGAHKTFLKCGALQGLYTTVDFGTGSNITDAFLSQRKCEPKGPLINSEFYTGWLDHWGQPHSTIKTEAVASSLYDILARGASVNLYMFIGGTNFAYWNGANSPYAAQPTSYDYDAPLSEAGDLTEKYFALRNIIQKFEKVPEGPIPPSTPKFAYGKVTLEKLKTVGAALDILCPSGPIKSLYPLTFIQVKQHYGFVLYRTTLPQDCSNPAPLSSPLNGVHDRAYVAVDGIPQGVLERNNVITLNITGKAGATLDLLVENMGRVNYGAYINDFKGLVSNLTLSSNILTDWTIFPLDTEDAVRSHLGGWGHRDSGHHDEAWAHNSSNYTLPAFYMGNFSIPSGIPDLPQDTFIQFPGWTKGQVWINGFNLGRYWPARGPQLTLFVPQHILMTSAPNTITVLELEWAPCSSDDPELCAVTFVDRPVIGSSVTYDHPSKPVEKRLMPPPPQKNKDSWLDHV
experiment: Inhibition of human lysosomal beta-galactosidase using 4-MU beta-gal as substrate incubated for 96 hrs by fluorescence assay
value.kind: pIC50
# log scale: pIC50 equals minus log10 of the concentration in mol/L

Exam item: Please tell me: pIC50 of `OCC[C@H]1NC[C@@H](O)[C@@H](O)[C@H]1CO` , system UniProt:P16278?
Marked response: 5.62

Exam item: Cool, now `CN(C)c1cccc2c(S(=O)(=O)NCCCC[C@H]3NC[C@@H](O)[C@@H](O)[C@H]3CO)cccc12`
Marked response: 6.68

* * *

tested.on: Alpha-galactosidase A (Homo sapiens, UniProt P06280)
Sequence (P06280 whole entry): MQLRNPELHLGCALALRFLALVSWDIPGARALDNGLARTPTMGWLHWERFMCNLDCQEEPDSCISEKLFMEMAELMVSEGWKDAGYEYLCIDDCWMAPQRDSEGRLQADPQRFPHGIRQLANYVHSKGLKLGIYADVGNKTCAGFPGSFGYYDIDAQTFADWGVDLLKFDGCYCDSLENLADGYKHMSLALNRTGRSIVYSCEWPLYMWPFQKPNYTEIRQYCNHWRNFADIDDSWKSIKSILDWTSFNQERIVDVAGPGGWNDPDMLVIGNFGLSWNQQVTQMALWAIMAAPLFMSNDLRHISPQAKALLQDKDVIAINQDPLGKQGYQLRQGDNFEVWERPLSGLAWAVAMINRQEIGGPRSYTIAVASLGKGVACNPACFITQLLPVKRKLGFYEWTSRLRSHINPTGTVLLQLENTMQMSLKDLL
experiment: Inhibition of human recombinant lysosomal alpha-galactosidase using 2,4-dinitrophenyl-alpha-D-galactopyranoside as substrate preincubated up to 5 mins followed by substrate addition measured up to 10 mins
value.kind: Ki

Exam item: Return reported Ki; argument: `OC[C@H]1CNC[C@@H](O)[C@H]1O`
Marked response: > 2000 µM

Exam item: Now try `NCCCC[C@H]1NC[C@@H](O)[C@@H](O)[C@H]1CO` .
Marked response: > 2000 µM

Exam item: Could you do the same for `OCC[C@H]1NC[C@@H](O)[C@@H](O)[C@H]1CO` , please?
Marked response: > 2000 µM

Exam item: Ok, now `CN(C)c1cccc2c(S(=O)(=O)NCCCC[C@H]3NC[C@@H](O)[C@@H](O)[C@H]3CO)cccc12`
Marked response: > 2000 µM
